Target of assay: T1, recombinant canine Nerve Growth Factor (Canis lupus familiaris NGF) (canine (Canis lupus familiaris), UniProt Q29074 110-229 (pig entry), limits assumed)
T1 construct: also called canine NGF; Dog NGF
T1 chain: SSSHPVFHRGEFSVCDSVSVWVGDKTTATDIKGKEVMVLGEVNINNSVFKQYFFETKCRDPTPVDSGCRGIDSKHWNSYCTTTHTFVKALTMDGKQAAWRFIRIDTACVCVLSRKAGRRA
Method notes: SPR, 1:1 binding fit, canine NGF
Quantity name: koff
Form field: result (number plus unit)

Query SSM-22 (LC SSMwtLCR53S, HC SSMwtHCD54T, G31E) (antibody, V domains shown) VH: EVQLVESGGDLARPGGSLKLSCVVSGFSLIEYDINWVRQAPGKGLQWVTMIWGTGTTDYNSALKSRFTVSRDNAMNTVYLQMNSLRVEDTAVYYCARGGYYYGTSYYFDYWGQGTLVTVSS VL: DIVMTQTPLSLSVSPGETASISCRASQDISNHLNWFRQKPGQSPQRLIYYISSFHSGVPDRFSGSGSGTDFTLRISRVEADDTGVYYCQQSKTLPYTFGAGTKLEIK yields koff of 0.000296 s⁻¹

According to the records, this binder LTM135 (HC G103A, LC H32N) (antibody, V domains shown, Point mutant of canE3M65 as full IgG) VH: EVQLVESGGDLARPGGSLKLSCVVSGFSLIGYDINWVRQAPGKGLQWVTMIWGDGTTDYNSALKSRFTVSRDNAMNTVYLQMNSLRVEDTAVYYCARGGYYYATSYYFDYWGQGTLVTVSS VL: DIVMTQTPLSLSVSPGETASISCRASQDISNNLNWFRQKPGQSPQRLIYYISRFHSGVPDRFSGSGSGTDFTLRISRVEADDTGVYYCQQSKTLPYTFGAGTKLEIK displays koff of 4.23e-05 s⁻¹
